These entries and their values trace back to the Kinase Knowledgebase extract (Sharma et al. 2016).

Observed IC50, system CDK2 (human) (UniProt P24941).

Using the record for CCCS(=O)(=O)Nc1ccc(F)c(C(OC)c2c[nH]c3ncc(OC)cc23)c1F (configuration not stated) , report its IC50.
≤ 10 µM

# input compound: "OCCOc1ccc(F)c(Cc2c[nH]c3ncc(-c4cccnc4)cc23)c1F" ; wanted: its IC50
≤ 10 µM

----------
Attribute: IC50
target: UniProt Q16539
Sequence (Q16539 whole entry, looked up): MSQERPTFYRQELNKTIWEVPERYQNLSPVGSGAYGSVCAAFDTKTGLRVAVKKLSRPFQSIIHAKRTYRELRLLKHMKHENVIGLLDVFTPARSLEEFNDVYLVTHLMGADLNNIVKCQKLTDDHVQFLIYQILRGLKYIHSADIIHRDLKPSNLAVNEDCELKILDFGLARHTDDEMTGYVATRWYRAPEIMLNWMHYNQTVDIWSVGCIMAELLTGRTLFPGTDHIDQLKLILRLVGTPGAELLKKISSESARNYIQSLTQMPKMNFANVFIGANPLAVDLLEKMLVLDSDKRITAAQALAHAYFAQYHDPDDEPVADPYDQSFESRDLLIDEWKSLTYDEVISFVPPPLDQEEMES

Guide cases for IC50, answers given:
Lab note: need IC50 with UniProt Q16539 for entry "CS(=O)(=O)Nc1cccc(-c2cnc3[nH]cc(C(=O)c4c(F)ccc(NS(C)(=O)=O)c4F)c3c2)c1" , please look it up.
≤ 10 µM

Item "c1ccc2c(Cc3c[nH]c4ncccc34)cccc2c1" with UniProt Q16539 - IC50?
≤ 10 µM

Here is the next item to consider.
Notebook entry, UniProt Q16539 assay: IC50 of "CS(=O)(=O)Nc1cccc(-c2cnc3[nH]cc(C(=O)c4c(Cl)ccc(NS(C)(=O)=O)c4F)c3c2)c1" = ?
≤ 10 µM
